# System: KM12 colon
# Assay protocol: NCI-60 one-dose screen, 48 h
# Recorded conditions: 10 µM unless noted
This is part of a sample that, as a whole, favours compounds with a hit. Of some 83,000 tested, about 20% had one in any assay. Activity calls are given as the source filed them. How the source made its calls: active means growth percent below 10; inactive means the rest.
Just give me one of these, please: T = active, F = inactive

Worked set:
Cc1cc(=O)[nH]n1-c1cc(Cl)ccc1N :: F
O=C(Nc1ccc(Cl)c(Cl)c1)NC(CO)(CO)CO :: F
O=S(=O)(Nc1ccccc1Cl)c1ccc(-c2cnc(C3CC3)o2)cc1 :: F

Hello, I am checking results. What call was entered for Nc1cc2[nH]c(=O)c3ccccc3c2cc1Br ? F

Hello, I am checking results. What call was entered for COc1cccc(C2C3=C(COC3=O)N(CCO)c3cc4c(cc32)OCO4)c1 (configuration not stated) ? F

Hello, I am checking results. What call was entered for N#CCCN1CCN(CCC#N)C1=S ? F

Hello, I am checking results. What call was entered for Cc1c(C)n(CC(O)CNC2CCCCC2C)c2ccccc12 (configuration not stated) ? T

Hello, I am checking results. What call was entered for Cc1nc2cc(Nc3nc(N4CCCCC4)nc(N4CCOCC4)n3)ccc2n1Cc1ccccc1 ? F

Hello, I am checking results. What call was entered for COc1ccc(C2OCC(C)(C)CO2)cc1OC ? F

Hello, I am checking results. What call was entered for CN1CCN(CCCn2c3c(sc4ncccc43)c(=O)n3nnc(-c4ccccc4)c23)CC1 ? T

Hello, I am checking results. What call was entered for O=C1C(Cl)=C(NCCCN2CCOCC2)C(=O)c2ccccc21 ? F

Hello, I am checking results. What call was entered for Cc1nc(NN)c([N+](=O)[O-])c(NN)n1 ? F

* * *

# Tested on: OVCAR-8 ovarian
# Assay protocol: NCI-60 one-dose screen, 48 h (100 = growth as untreated, 0 = no growth, -100 = all killed)
# Recorded conditions: 10 µM unless noted
Compounds without any hit were thinned out: in the full panel of roughly 83,000, 20% have a hit.
Rule: growth under 90% gives Condition not met, otherwise Condition met.

Worked set:
CN1CCN(c2ccc3nc(-c4ccc5nc(-c6ccc(C(F)(F)F)cc6)[nH]c5c4)[nH]c3c2)CC1 :: Condition not met
Cc1cc(=O)c2c(C)ccc(C)c2[nH]1 :: Condition met
COc1ccc(/C=C2\Oc3cc(C)c(Cl)cc3C2=O)cc1OC :: Condition met
COc1cc(-c2nc(SC(C)C)nc(Nc3cccc(C)c3)c2C#N)cc(OC)c1OC :: Condition met

API: the following record is the query input.
Check the entry C=C1CC[C@@H]2[C@@](C)(CCC[C@]2(C)C(=O)O)[C@@H]1CC[C@H](CO)CCO : does growth equal or exceed 90%? Condition met

* * *

# System: SNB-19 CNS
# Assay protocol: NCI-60 one-dose screen, 48 h (100 = growth as untreated, 0 = no growth, -100 = all killed)
# Recorded conditions: 10 µM unless noted
Compounds without any hit were thinned out: in the full panel of roughly 83,000, 20% have a hit.
Let's look at some compounds and their measured growth.
Entry rule: numbers only, all in %.

COc1ccc(-c2c3c(N)c4c(nc3nc3c2c(C)nn3-c2ccccc2)CCCC4)cc1 :: 103
Cn1c2ccccc2c2nn(C(=O)c3ccccc3)c(=O)nc21 :: 99
Cc1ccc(S(=O)(=O)N2CCc3ccc(O)c4c3C2Cc2ccc3c(c2-4)OCO3)cc1 (stereo unspecified) :: 52.3
CCCCC(O)Cn1ncc(C(=O)OCC)c1NC(=O)NCc1ccccc1C(F)(F)F (stereo unspecified) :: 94.4
COC(=O)c1c2c(c(C)[n+]([O-])c1C)C(=O)C(NCc1ccc(O)cc1)=CC2=O :: -28.5

Please list growth recorded for the compound COc1cccc(C2CC(=O)Nc3cc4c(cc32)OCO4)c1OC (stereo unspecified) 101

Please list growth recorded for the compound O=C1/C(=C/c2ccc([N+](=O)[O-])cc2)Oc2ccc(O)cc21 90.7

Please list growth recorded for the compound Cc1cccc2c(=O)c3c(sc12)c(NCCCN)nc1ccccc13 51.3

Please list growth recorded for the compound CCCCc1ccc(NC(=O)C(F)(F)F)cc1 106

Please list growth recorded for the compound O=C(Nc1ccccc1)Oc1cccc2cccnc12 99.3

Please list growth recorded for the compound Cc1cc(=O)c2c(C)ccc(C)c2[nH]1 99.8

Please list growth recorded for the compound CCOc1ccc(/C=N\N2CCCCCC2)cc1OCC 96.2

Please list growth recorded for the compound COC(=O)[C@@]12CC[C@@H](C)[C@]3(C[C@@H](c4ccoc4)OC3=O)[C@H]1CC[C@@H]1O[C@@]12C 102

Please list growth recorded for the compound O=C(NCc1ccco1)C1CCN(S(=O)(=O)c2ccc(Cl)cc2)CC1 84.3

Please list growth recorded for the compound N#Cc1c(-c2cccc(F)c2)cc(-c2ccc(Br)s2)[nH]c1=O 78.4

* * *

# Test system: NCI-H226 lung
# Assay protocol: NCI-60 one-dose screen, 48 h (100 = growth as untreated, 0 = no growth, -100 = all killed)
# Recorded conditions: 10 µM
Compounds without any hit were thinned out: in the full panel of roughly 83,000, 20% have a hit.
Measure name: growth (%)
Entry rule: numbers only, all in %.

Illustrative cases are given below, each with its answer.
O=C1C2CC3C(CC2C(=O)[N]1[Sn]([c]1ccccc1)([c]1ccccc1)[c]1ccccc1)C1(Cl)C(Cl)=C(Cl)C3(Cl)C1(Cl)Cl (stereo not given) :: -43.5
COc1nc2c(cc1S(=O)(=O)c1ccccc1)CCc1c-2cnn1-c1ccccc1Cl :: 51.8
Cc1nc2cc(Nc3nc(Nc4ccc(F)cc4)nc(N4CCN(C)CC4)n3)ccc2n1Cc1ccccc1 :: 65
CCOC(=O)C(CC(c1ccccc1)N1CCCCC1)[N+](=O)[O-] (stereo not given) :: 82.9
Cc1cc(Cl)c2c(Cl)ccc(Cl)c2n1 :: 110

Please list growth recorded for the molecule COc1cc(C2C3=C(COC3=O)N(CCO)c3cc4c(cc32)OCO4)cc(OC)c1O (stereo not given) 61.7

Please list growth recorded for the molecule COc1cc(NC(=O)COc2ccccc2)c(C(N)=O)cc1OC 76.5

* * *

# System: RPMI-8226 leukemia
# Assay protocol: NCI-60 one-dose screen, 48 h (100 = growth as untreated, 0 = no growth, -100 = all killed)
# Recorded conditions: 10 µM
This is part of a sample that, as a whole, favours compounds with a hit. Of some 83,000 tested, about 20% had one in any assay.
Measure name: growth (%)
Entry rule: numbers only, all in %.

Illustrative cases are given below, each with its answer.
O=C1c2ccccc2-c2cn(Cc3ccccc3)c3cccc(c23)C1c1cccnc1 (configuration not stated) :: 64.5
CCOC(=O)C1=C(C)N2C(=NC3=C(CCCC/C3=C\c3cc(OC)c(OC)c(OC)c3)C2c2cc(OC)c(OC)c(OC)c2)S1 (configuration not stated) :: 32.7
C[C@]1(CO)C[C@@H](O)C[C@]2(C)[C@@H]1CC[C@@]13C[C@@H]4[C@@H](C[C@H]12)[C@]4(C)C3 :: 114

Please list growth recorded for the compound CC1(C)N=C(N)N=C(N)N1c1cccc(OCCOc2cccc([N+](=O)[O-])c2)c1 52.4

Please list growth recorded for the compound COc1ccc(-c2[nH]ncc2Nc2cc(OC)c(OC)c(OC)c2)cc1 33.2

Please list growth recorded for the compound Brc1ccc(SCN(CSc2ccc(Br)cc2)Cc2ccccc2)cc1 36.3

* * *

# System: COLO 205 colon
# Assay protocol: NCI-60 one-dose screen, 48 h
# Recorded conditions: 10 µM unless noted
This is part of a sample that, as a whole, favours compounds with a hit. Of some 83,000 tested, about 20% had one in any assay. Calls of active or inactive are those of the source. How the source made its calls: active means growth percent below 10; inactive means the rest.
Just give me one of these, please: active, inactive

Worked set:
O=C(N/N=C/c1ccc(F)cc1)c1[nH]c2ccc(I)cc2c1-c1ccccc1 :: active
COC(=O)/C=C1/CCC2C3CCC4=CC(=O)C(Br)CC4(C)C3C(=O)CC12C (stereo not given) :: inactive
COc1ccc(/C=C2\CN(Cc3cn(CCCNc4ccnc5cc(Cl)ccc45)nn3)C/C(=C\c3ccc(OC)c(OC)c3)C2=O)cc1OC :: active
COc1cc(C2C3=C(COC3=O)N(CCO)c3cc4c(cc32)OCO4)cc(OC)c1O (stereo not given) :: active

API: the following record is the query input.
Hello, I am checking results. What call was entered for CCCC1=NNC(=O)C1 ? inactive

* * *

# Tested on: SNB-19 CNS
# Assay protocol: NCI-60 one-dose screen, 48 h
# Recorded conditions: 10 µM unless noted
This is part of a sample that, as a whole, favours compounds with a hit. Of some 83,000 tested, about 20% had one in any assay. Calls of active or inactive are those of the source. Rule for the calls: active = growth percent below 10; inactive = the rest.
Just give me one of these, please: Y for active, N for inactive

Worked set:
CN1CCN(C(=O)OCCOCCOC(=O)N2CCN(C)CC2)CC1 :: N
CCCOC(=O)c1ccc2c(c1)[N+](=O)C(C(=O)c1ccccc1)=C(C(F)(F)F)[N+]2=O :: Y
O=c1ccc2ccccc2o1 :: N
O=C1CCC(N2Cc3c(C#CCCCNC(=O)c4cc5c(o4)C(=O)c4ccccc4C5=O)cccc3C2=O)C(=O)N1 (stereo unspecified) :: Y
COc1cccc2c(=O)c3c(sc12)c(NCCN(C)C)nc1ccccc13 :: N
N#CCCN1CCN(CCC#N)C1=S :: N
O=C(N/N=C/c1ccc(OC(F)F)c(OC2CCCC2)c1)c1cnn2c1NC(c1ccccc1)C2 (stereo unspecified) :: N
Cn1c2c(cc(S(=O)(=O)c3ccccc3)c1=O)CCc1c-2cnn1-c1ccccc1Cl :: N
Cn1c2ccc(Cl)cc2c2nn(C(=O)c3ccccc3)c(=O)nc21 :: N
O/N=C/c1cccs1 :: N

Hello, I am checking results. What call was entered for NC(=O)c1cc(Cl)ccc1NC(=O)COc1ccccc1 ? N
